- Tested on: BV-2
- test-summary: Anti-neuroinflammatory activity against LPS-stimulated mouse BV-2 cells assessed as inhibition of NO production at 10 uM
- Assay type: functional
- Design: scale not given: the % may be the effect or the level left
Rule: y for Activity not less than 50%, n for anything less.

compound=C#CCO/N=C(\Cn1ccnc1)c1ccc2c(c1)OCO2 class=y
compound=CN(C)c1ccc(/C(Cn2ccnc2)=N/OC(=O)/C=C/c2ccccc2)cc1 class=n
compound="COC(Cn1ccnc1)c1ccc2c(c1)OCO2 (racemic)" class=n
compound=O=C(CCCC[C@@H]1CCSS1)O/N=C(\Cn1ccnc1)c1ccc2c(c1)OCO2 class=y
compound=COc1ccc(/C=C/C(=O)O/N=C(\Cn2ccnc2)c2ccc3c(c2)OCO3)cc1 class=y
compound=CN(C)c1ccc(/C(Cn2ccnc2)=N/OC(=O)/C=C/c2ccc3c(c2)OCO3)cc1 class=n

QUERY: Quick check, Activity >= 50%? `O=C(Cn1ccnc1)c1ccc2c(c1)OCO2`
RESULT: y

QUERY: Quick check, Activity >= 50%? O=c1c(O)c(-c2ccc(O)c(O)c2)oc2cc(O)cc(O)c12 [QUERCETIN]
RESULT: y

FYI, the data here is from ChEMBL document CHEMBL6127037.
